// reported microsomal CLint at 1 μM per item
test: Metabolic stability in human liver microsomes; assay type: in vitro ADME; settings: pH 7.4, 1 μM compound, 0.5 mg/mL protein, read-out: CLint (uL/min/mg), Human liver microsome experiment
Give the number; µL/min/mg is assumed, so skip it.

Reference set, count: 3
COc1cc(C(C)CN(C)C)ccc1Nc1ncc(Cl)c(Nc2ccccc2P(C)(C)=O)n1 (stereo not shown)
18.6
COc1cc(CCN2CCN(C)CC2)ccc1Nc1ncc(Cl)c(Nc2ccccc2P(C)(C)=O)n1
17.3
COc1cc(C(C)(C)N(C)C)ccc1Nc1ncc(Cl)c(Nc2ccccc2P(C)(C)=O)n1
29.9

The record that follows has no microsomal CLint at 1 μM shown yet.
Value lookup for microsomal CLint at 1 μM; key = COc1cc(C(C)(C)N)ccc1Nc1ncc(Cl)c(Nc2ccccc2P(C)(C)=O)n1 11.7
